The values you see were collected from ChEMBL document CHEMBL4219092.

molecular target: UniProtKB Q9Y2T5; assay: Agonist activity at human GPR52 expressed in CHO cells assessed as increase in cAMP level after 30 mins by AlphaScreen assay relative to N-(2-hydroxyethyl)-3-[2-[3-(trifluoromethyl)benzyl]-1-benzofuran-4-yl]benzamide; assay type: functional, cell-based
Sequence (Q9Y2T5 whole entry): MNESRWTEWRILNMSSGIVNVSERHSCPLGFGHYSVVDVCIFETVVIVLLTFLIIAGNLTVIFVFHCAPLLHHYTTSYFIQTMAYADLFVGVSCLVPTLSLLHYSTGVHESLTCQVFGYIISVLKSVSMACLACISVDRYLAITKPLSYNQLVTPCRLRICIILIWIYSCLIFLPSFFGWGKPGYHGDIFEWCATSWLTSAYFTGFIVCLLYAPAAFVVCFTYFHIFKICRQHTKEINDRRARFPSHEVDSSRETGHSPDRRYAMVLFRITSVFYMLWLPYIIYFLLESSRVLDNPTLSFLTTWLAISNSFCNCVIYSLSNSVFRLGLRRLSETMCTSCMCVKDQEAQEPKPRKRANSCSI
observed property: Emax (%)

>  <structure string>
COCCNC(=O)c1cnn(-c2cccc3cc(Cc4cccc(C(F)(F)F)c4)sc23)c1C

>  <observed>
84

$$$$
>  <structure string>
Cc1nn(-c2cccc3cc(Cc4cccc(C(F)(F)F)c4)sc23)c(CO)c1C(=O)NCCO

>  <observed>
103

$$$$
>  <structure string>
Cc1nn(-c2cccc3cc(Cc4cccc(C(F)(F)F)c4)sc23)c(C)c1C(=O)NCCO

>  <observed>
110

$$$$
>  <structure string>
COCCNC(=O)c1c(C)nn(-c2cccc3cc(Cc4cccc(C(F)(F)F)c4)sc23)c1C

>  <observed>
104

$$$$
>  <structure string>
COCCNC(=O)c1cnn(-c2cccc3cc(Cc4cccc(C(F)(F)F)c4)sc23)c1

>  <observed>
81

$$$$
>  <structure string>
Cc1nn(-c2cccc3cc(Cc4cccc(C(F)(F)F)c4)sc23)cc1C(=O)NCCO

>  <observed>
102

$$$$
>  <structure string>
Cn1nc(-c2cccc3cc(Cc4cccc(C(F)(F)F)c4)sc23)cc1C(=O)NCCO

>  <observed>
110

$$$$
>  <structure string>
Cc1c(C(=O)NCCO)c(CO)nn1-c1cccc2cc(Cc3cccc(C(F)(F)F)c3)sc12

>  <observed>
96

$$$$
>  <structure string>
O=C(NCCO)c1cnn(-c2cccc3cc(Cc4cccc(C(F)(F)F)c4)sc23)c1

>  <observed>
73

$$$$
>  <structure string>
COCCNC(=O)c1cn(-c2cccc3cc(Cc4cccc(C(F)(F)F)c4)sc23)nc1C

>  <observed>
89

$$$$

----------
assay: Aqueous solubility of the compound at pH 6.8 by HPLC analysis; format: physicochemical
observed property: solubility

>  <structure string>
Cc1c(C(=O)NCCO)c(CO)nn1-c1cccc2cc(Cc3cccc(C(F)(F)F)c3)sc12

>  <solubility>
18 µg/mL

$$$$
>  <structure string>
Cc1nn(-c2cccc3cc(Cc4cccc(C(F)(F)F)c4)sc23)cc1C(=O)NCCO

>  <solubility>
< 0.1 µg/mL

$$$$
>  <structure string>
COCCNC(=O)c1cnn(-c2cccc3cc(Cc4cccc(C(F)(F)F)c4)sc23)c1

>  <solubility>
< 0.08 µg/mL

$$$$
>  <structure string>
COCCNC(=O)c1cn(-c2cccc3cc(Cc4cccc(C(F)(F)F)c4)sc23)nc1C

>  <solubility>
< 0.1 µg/mL

$$$$

Which measured solubility value corresponds to Cn1nc(-c2cccc3cc(Cc4cccc(C(F)(F)F)c4)sc23)cc1C(=O)NCCO ?
< 0.08 µg/mL

Item: O=C(NCCO)c1cnn(-c2cccc3cc(Cc4cccc(C(F)(F)F)c4)sc23)c1
< 0.09 µg/mL
